- Test system: SEM cells
- TEST_PROTOCOL: cell viability relative to DMSO control; higher = less cytotoxic
- COND: RPMI 5 mM glucose + 10% FBS; 48 h; 0.569 µM
Can you tell me cell viability for the items I'm about to list?

Q: Need cell viability, item CCNC(=O)Nc1ccc2ncc(Nc3ccc(C)cc3)nc2n1
Ans: 124%

Q: Also CC(C)C[C@H](NC(=O)[C@@H](O)[C@H](N)Cc1ccccc1)C(=O)O , if possible.
Ans: 118%

Q: Also C[S+](=O)([O-])c1ccc(Oc2cc(F)cc(C#N)c2)c2c1[C@H](O)C(F)(F)C2 , if possible.
Ans: 144%

Q: Also CN(C)C1=C(Br)C=C(C=C1)C\2NC3=C(\C4=C2C(=O)CC(C)(C)C4)C5=CC=CC=C5C=C3 (stereo unspecified) , if possible.
Ans: 107%

Q: Also C[C@]12CCC\3=C\4CCC(=O)\C=C4CC[C@H]3[C@@H]1CC[C@@]2(O)CC#N , if possible.
Ans: 138%

Q: Also CCOC(=O)Nc1ccc(NCc2ccc(F)cc2)nc1N , if possible.
Ans: 118%

Q: Also CCN1CCCC1CNC(=O)c1cc([S+](N)(=O)[O-])ccc1OC (stereo unspecified) , if possible.
Ans: 106%

Q: Also CNC(=O)N1\N=C(\C2=CC=C(N)C=C2)C3=CC4=C(OCO4)C=C3CC1C (stereo unspecified) , if possible.
Ans: 132%

Q: Also NC(=O)c1ncn([C@@H]2O[C@H](CO)[C@@H](O)[C@H]2O)c1O , if possible.
Ans: 115%

Q: Also CN(C)CCN1C(=O)c2cccc3cc(N)cc(c23)C1=O , if possible.
Ans: 62.6%

Q: Also OC(CN1CCN(c2cccc(Cl)c2)CC1)C(c1ccccc1)c1ccccc1 (stereo unspecified) , if possible.
Ans: 24%

Q: Also CC(COc1ccccc1)N(CCCl)Cc1ccccc1 (stereo unspecified) , if possible.
Ans: 131%

Q: Also OCCn1cc(-c2cnc3nnn(Cc4ccc5ncccc5c4)c3n2)cn1 , if possible.
Ans: 109%

Q: Also OCCC#Cc1nc(-c2ccc(F)cc2)c(-c2ccncc2)n1CCCc1ccccc1 , if possible.
Ans: 116%

Q: Also c1ccc(-c2oc3ncnc(NC[C@@H]4CCCO4)c3c2-c2ccccc2)cc1 , if possible.
Ans: 105%

Q: Also COc1cccc2c1CCCC2CCCN1CCN(C2CCCCC2)CC1 (stereo unspecified) , if possible.
Ans: 103%

Q: Also NC(=O)OCC(COC(N)=O)c1ccccc1 , if possible.
Ans: 102%

Q: Also Cc1cccc(/C=N/Nc2cc(N3CCOCC3)nc(OCCc3ccccn3)n2)c1 , if possible.
Ans: 95.4%

Q: Also N#C/N=C(\NCCCCCCOc1ccc(Cl)cc1)Nc1ccncc1 , if possible.
Ans: 6.61%

Q: Also CNC(=O)C1=CC=C(C)C(=C1)N2C(=C/C(=C(/Br)C2=O)OCC3=C(F)C=C(F)C=C3)\C , if possible.
Ans: 131%

Q: Also CC/1=C(/N2[C@H](SC1)[C@H](NC(=O)C(N)C3=CC=CC=C3)C2=O)C(O)=O (stereo partly specified) , if possible.
Ans: 129%

Q: Also Cc1ccc2c(c1)c1c(n2CCc2ccc(C)nc2)CCN(C)C1 , if possible.
Ans: 140%

Q: Also N=C1N[C@H]2[C@H](CS[C@H]2CCCCC(=O)O)N1 , if possible.
Ans: 15.4%

Q: Also CC(C)(O)/C=C\C(=O)[C@](C)(O)[C@H]1[C@H](O)C[C@]2(C)[C@@H]3CC=C4[C@@H](C=C(O)C(=O)C4(C)C)[C@]3(C)C(=O)C[C@@]12C , if possible.
Ans: 13.7%

Q: Also CCN1CCN(C(=O)Cc2ccc(Nc3ncc(F)c(Nc4ccc(C(=O)Nc5ccccc5Cl)cc4)n3)cc2)CC1 , if possible.
Ans: 101%

Q: Also CN1CCN(C(=O)O[C@H]2c3nccnc3C(=O)N2c2ccc(Cl)cn2)CC1 , if possible.
Ans: 99.9%
